B1: TIA1 (parent)
chain: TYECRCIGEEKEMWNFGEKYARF

Variants of: B1
EXPERIMENTAL PROTOCOL: protein stability index of a GFP-peptide fusion (GPS, HEK-293T) (PSI 1-6); higher = more stable;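 further: lentivirally expressed fusions sorted by FACS into six bins by GFP to DsRed ratio, PSI derived from sequencing read proportions per bin multiplied by bin number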
ASSAY CONDITIONS: c terminus: native
Each item that follows carries a reported protein stability index.
Reply: number alone, nothing else.

Task: Determine from records and report protein stability index for `G17A`
Output: 2.27
